- assayTarget: vesicular monoamine transporter 2 (VMAT2) (Rattus norvegicus)
- Sequence (Q01827 whole entry): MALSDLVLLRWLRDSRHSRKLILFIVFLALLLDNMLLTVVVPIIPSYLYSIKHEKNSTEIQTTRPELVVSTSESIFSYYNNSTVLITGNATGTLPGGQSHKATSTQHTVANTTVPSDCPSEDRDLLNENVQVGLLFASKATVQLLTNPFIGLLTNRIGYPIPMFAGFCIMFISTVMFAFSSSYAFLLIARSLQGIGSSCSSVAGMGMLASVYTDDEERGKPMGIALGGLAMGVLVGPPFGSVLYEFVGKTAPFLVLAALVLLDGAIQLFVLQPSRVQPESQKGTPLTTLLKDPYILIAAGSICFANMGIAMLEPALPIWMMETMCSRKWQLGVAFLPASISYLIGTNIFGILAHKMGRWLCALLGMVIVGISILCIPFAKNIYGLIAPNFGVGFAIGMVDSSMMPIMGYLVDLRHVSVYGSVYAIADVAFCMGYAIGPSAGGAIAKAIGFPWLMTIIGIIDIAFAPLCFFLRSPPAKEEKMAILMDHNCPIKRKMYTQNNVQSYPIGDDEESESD
reportedEndpoint: Kd (pM)
Answers are plain numbers, in pM.

The compound listed as COc1cc2c(cc1OCCCF)CCN1C[C@@H](CC(C)C)[C@H](O)C[C@H]21 [AV-133, reference compound] shows Kd equal to 110

====

I'd appreciate it if you could supply Ki values for the items below.
- assayTarget: Aβ aggregates of human AD brain homogenates (Homo sapiens, UniProt P05067)
- Construct: from tissue; host or cells: human Alzheimer's disease brain homogenate
- Sequence (P05067 672-713 limits assumed): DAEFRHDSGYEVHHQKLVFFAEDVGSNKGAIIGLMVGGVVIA
- protocol: In vitro binding assay for Aβ aggregates of human AD brain homogenates
- particulars: hot ligand ^18F-AV-45; Avg ± SD, n = 3; read-out: Ki of cold competing drug
Numbers only, in nM.

Use these answered entries as a reference point.
CNc1ccc(/C=C/c2ccc(OCCOCCOCCF)nc2)cc1 [AV-45, reference compound]; 4.02
[2H]C([2H])([2H])Nc1ccc(/C=C/c2ccc(OCCOCCOCCF)cc2)cc1 [AV-1-D3, IIa2]; 3.35

Below: the item to evaluate.
Reported Ki of [2H]C([2H])([2H])Nc1ccc(/C=C/c2ccc(OCCOCCOCCF)nc2)cc1 [AV-45-D3, IIa1] : 3.44

// data source = patent US12544463B2
